Field: TGI. Provide a value for each of the compounds that follow.
test system: SK-MEL-2 melanoma; experiment: NCI tumour cell line growth inhibition, 48 h

Worked cases, answers included:
# input Would you kindly share the measured TGI for `CSc1c(C(C)=O)c(O)n(-c2ccc(C)cc2)c(=O)c1C#N` ?
# output > 100 µM

# input Next up: CCOC(=O)N1c2ccccc2C(C)=CC(C)C1C (centres undefined)
# output > 100 µM

# input Next: `N#C/C(=C\c1ccc(O)cc1)C(N)=O`
# output > 100 µM

# input Request: `CC(C)c1ccc(O)c(Cc2cc(C(C)C)cc(Cc3cc(C(C)C)ccc3O)c2O)c1`
# output 3.06 µM

# input Continue with C=CCOCC1C2CCC3(OCCO3)C21 (centres undefined)
# output > 100 µM

# input Try `ClC1=NSSC1(Cl)Cl` next.
# output > 100 µM

Required: TGI, one value per compound below.
1. O=C1/C(=C/c2ccc(Cl)cc2)CCC1CNc1ccc(Cl)cc1 (centres undefined)
2. CC(=O)N[C@@H](Cc1ccc(O)cn1)C(=O)NCc1ccc(Cl)cc1
3. COc1cc2c(c(OC)c1OC)-c1cc(I)c(O)cc1[C@@H](NC(C)=O)CC2

# output
58.5 µM
> 100 µM
> 100 µM

----------
test system: SW-620 colon; assay: NCI tumour cell line growth inhibition, 48 h; in the data active means GI50 below about 0.43 µM; inactive means the rest
Return exactly one item of t for active, f for inactive

Past entries and their recorded results:
# input Recorded call for CN1C2C=CC(=O)C1C1C(=O)N(c3ccccc3)C(=O)C12 (stereo not given) ?
# output f

# input Also `Cc1ccc(NCCNCC(C)(C)O)c2c(=O)c3ccc(Cl)cc3sc12` ?
# output f

# input Queued: `O=c1c(I)c[nH]cc1I`
# output f

# input `COc1cc2c(c(OC)c1OC)-c1cc(I)c(O)cc1[C@@H](NC(C)=O)CC2` ?
# output t

# input Another compound: `Cn1cc(-c2cc(-c3cn(C)c4ccccc34)[nH]n2)c2ccccc21`
# output f

New cases:
# input Lab log entry: `NC(=NCCCCCCN=C(N)/N=C(\N)Nc1ccc(Cl)cc1)/N=C(\N)Nc1ccc(Cl)cc1` — outcome as called in the assay?
# output f

# input Now give it for `COc1cc(N=Nc2cc(Cc3ccc(N(C)C)cc3)c(N)cc2N(C)C)c2ncccc2c1` too.
# output t

# input Then `[CH3][Sn]([CH3])([CH3])[S]C(=S)N1CCOCC1` ?
# output t

# input Please do the same for `Cc1cc(NC(=O)NCc2ccc(N3C(N)=NC(N)=NC3(C)C)cc2)ccc1S(=O)(=O)F` as well.
# output f

# input Please answer likewise for `CN(C)CCCN1c2ccccc2Sc2ccc(C(F)(F)F)cc21`
# output f

----------
tested on: SF-295 CNS; test: NCI tumour cell line growth inhibition, 48 h
For each record, write down the corresponding TGI.

Known TGI results, listed for orientation:
# input Returns the measured TGI for the input compound. Input: `COc1cc2c(oc(=O)c3c4occc4cc(OC)c23)c2cccc(O)c12`
# output > 100 µM

# input How about `COC(=O)CN1CCN(c2cccc3c2CCCC3)CC1` ?
# output > 100 µM

# input Lookup `CCc1ccc2c(c1)C(=O)c1c-2n(CCCN)c(=O)c2cc(OC)c(OC)cc12`
# output 3.08 µM

# input Another compound to look at: `COc1cccc(/C=C2\N=C(c3ccccc3)OC2=O)c1`
# output > 100 µM

# input Repeat for the following compound: CCCC1C[C@H]2CCCCN2[C@H]2CCCN12 (stereo not given in full)
# output > 100 µM

Okay, here is my list. What is TGI for each of these?
1. CCOC(=O)[C@@]12C[C@](/C=C/OC)(O[Si](C)(C)C)[C@@]13c1cc(OC)c(OC)cc1CCN3C(=O)C2=O
2. NCCCN(CCCCN(CCCN)CCCc1ccccc1)CCCc1ccccc1

# output
1: > 100 µM; 2: 3.16 µM

Okay, here is my list. What is TGI for each of these?
1. O=c1c(-c2nc3ccccc3c3ccccc3c2=O)nc2ccccc2c2ccccc12
2. NC(=S)NNCC(=O)CC(O)(C(F)(F)F)C(F)(F)Cl (stereo not given)
3. COC1OC2COC(=O)c3cc(O)c(O)c(O)c3-c3c(cc(O)c(O)c3O)C(=O)OC2C(O)C1O (stereo not given)
4. C=C1OC2OC(C)C(NC(=O)OCC(Cl)(Cl)Cl)C(OC(C)=O)C2O1 (stereo not given)
5. O=c1c(I)c[nH]cc1I

# output
1. > 100 µM
2. > 100 µM
3. 37.8 µM
4. > 100 µM
5. > 100 µM

----------
system: HOP-62 NSCLC; experiment: NCI tumour cell line growth inhibition, 48 h
parameter: TGI

Here's what some known entries look like.
# input Tell me the measured TGI of `Nc1nc(Cl)c(CO)c(NCC2(CO)CCC2)n1` , please.
# output > 100 µM

# input Next molecule: O=c1[nH]c2cc(Cl)ccc2nc1/C(=N\Nc1ccccc1)C(O)c1ccc2c(c1)OCO2 (stereo not given)
# output > 100 µM

# input Field entry: `CC(C)(C)OC(=O)Cn1ncn(NC(=O)Cc2ccccc2)c1=S`
# output > 10 µM

# input For `N[C@@H]1CCCN(c2c(Br)cnc3[nH]cc(NC(=O)C4CC4)c23)C1` then?
# output > 100 µM

# input Another molecule to look at: Cc1ccc(S(=O)(=O)N/N=C2\C=CC3(CC2)C(=O)N(I)c2ccccc23)cc1 (stereo not given)
# output > 100 µM

Quick one: give me TGI for each item below, same order please.
1. CCOc1ccc2nc(NC(=O)C(=O)C3C(=O)C(CC4C(=O)c5ccccc5C4=O)C(=O)CC3(C)C)sc2c1 (stereo not given)
2. Cc1sc(/N=C/C2=C(O)CC(C)(C)CC2=O)nc1-c1ccccc1
3. Nc1nc(N)c2nc(CN(C=O)c3ccc(C(=O)O)cc3)cnc2n1
4. C=CCOCC1C2CCC3(OCCO3)C21 (stereo not given)
5. O=[N+]([O-])c1cccc(/C=N/Nc2ccc3ccccc3n2)c1O

# output
> 100 µM
> 100 µM
> 100 µM
> 100 µM
8.9 µM

----------
tested on: MDA-MB-231 breast; assay: NCI tumour cell line growth inhibition, 48 h
Give measured TGI for each item. Keep answers brief.
Numbers only, in µM.

# input I have this molecule here, `Cc1nn2c(=O)c([N+](=O)[O-])c(/C=C/c3ccc(F)cc3)nc2s1` , and I need its recorded TGI.
# output 26.8

# input Please give the result for `O=C(C[N+]12CN3CN(CN(C3)C1)C2)c1ccc(-c2ccccc2)cc1` too.
# output 34.3

# input Same lookup for `Nc1nc(Sc2ccc([N+](=O)[O-])c3nonc23)c2[nH]cnc2n1` , please.
# output 13.7

# input Please give the result for CCOC(=O)N1c2ccccc2C(C)=CC(C)C1C (stereo not given) too.
# output 78.4

# input Similarly, `CCN(CC)c1c(C(C)(C)C)c(=O)n2ccsc2c1OC(C)=O` ?
# output 32.5

Quick batch: TGI for everything below.
1. CCOC(=O)Cc1c(C(=O)OCC)[n+](=O)c2cc(Cl)c(Cl)cc2n1[O-]
2. [O]=[Sn]([CH]1CCCCC1)[CH]1CCCCC1

# output
7.02
1.04

----------
test system: SF-295 CNS; experiment: NCI tumour cell line growth inhibition, 48 h
parameter: TGI

# input Endpoint output: TGI of CC(=O)OC1CCn2c1nc1cc([N+](=O)[O-])c(C)cc12 (configuration not stated) . Value?
# output > 100 µM

# input Field entry: `COc1cc(-c2nc(-c3ccccc3)c(-c3ccccc3)[nH]2)cc(OC)c1O`
# output 45.5 µM

# input And `CNC(=O)[C@H](Cc1ccccc1)NC(=O)N(CCC#N)CCN(C(=O)N[C@@H](Cc1ccccc1)C(=O)OC)c1ccccc1` ?
# output > 100 µM

# input Also, `O/N=C\c1c2c(cc3c1CCC3)CCC2` please.
# output > 100 µM

# input Record: CCOc1ccc(C2=NN(CC)C(=O)C(C3C(=O)N(c4ccccc4)N=C3C)C2)cc1 (configuration not stated)
# output > 100 µM

Quick request: TGI for each listed item, please.
1. Oc1c(Br)cc2c(c1Br)-c1c(c(O)c3c4c1=NCCC=4C=N3)NCC2
2. COc1cc(C2CC(c3ccccc3)=NN2C=O)ccc1Oc1ccnc2cc(Cl)ccc12 (configuration not stated)
3. CCn1c(-c2nonc2N)nc2ccccc21
4. C=C1C(=O)OC2CC(C)C(/C=C/C(C)=O)=CCC12 (configuration not stated)
5. OC12CCC3(OC4CCCCO4)c4ccccc4C3C1c1ccccc12 (configuration not stated)
6. ClC1=NSSC1(Cl)Cl

# output
1: 19.5 µM; 2: 86.2 µM; 3: > 25 µM; 4: > 100 µM; 5: > 100 µM; 6: > 100 µM

Dear colleague, could you please provide TGI for the compounds listed below?
1. Cc1ccc(C(=O)N/N=C(\N=Nc2ccc([N+](=O)[O-])cc2)c2ccc(N(CCC#N)CCC#N)cc2C)cc1
2. O=C1/C(=C/c2ccc(Cl)cc2)CCC1CNc1ccc(Cl)cc1 (configuration not stated)
3. CCCCNc1ncnc2c1cnn2-c1ccccc1
4. CN1C2C=CC(=O)C1C1C(=O)N(c3ccccc3)C(=O)C12 (configuration not stated)
5. COC(=O)c1ccccc1CC1Cc2c(C)ccc(C)c2C1=O (configuration not stated)
6. CCOC(=O)C(C)c1nc2cc(F)c(F)cc2[nH]c1=O (configuration not stated)

# output
1. > 100 µM
2. > 100 µM
3. 20.3 µM
4. 36.7 µM
5. > 100 µM
6. > 100 µM
